# Test system: SK-MEL-2 melanoma
# test description: NCI-60 one-dose screen, 48 h (100 = growth as untreated, 0 = no growth, -100 = all killed)
# applied conditions: 10 µM unless noted
Compounds without any hit were thinned out: in the full panel of roughly 83,000, 20% have a hit.
measurement type: growth (%)
Please reply with the bare figure in % and do not write the unit itself.

- molecule: "O=S(=O)(NCCNc1cc(-c2c(-c3cccc(O)c3)nc3sccn23)ccn1)c1ccc(Br)cc1"
  endpoint value: 79.5
- molecule: "c1ccc2[nH]c(SSc3nc4ncncc4[nH]3)nc2c1"
  endpoint value: 57.2

Record request: growth value, item CN(C)CCC(O)(Cc1ccccc1)c1ccccc1 (centres undefined) 100

Please give the measured growth for this molecule: CCO/C=N/C1=C(C#N)C(c2ccc(OC)cc2)c2c(c3ccccc3n(C)c2=O)O1 (centres undefined) 108

====

# Test system: M14 melanoma
# test description: NCI-60 one-dose screen, 48 h (100 = growth as untreated, 0 = no growth, -100 = all killed)
# applied conditions: 10 µM unless noted
The panel holds about 83,000 compounds, 20% with a hit somewhere; the sample as a whole holds those more often.
Sorting guide: entries reporting growth beneath -10% go in the True pile, the rest go in the False pile.

Strictly below -10%: is that where growth of COc1ccc(/C=C(\C#N)n2nnc3ccccc32)cc1 sits? True

hey, is growth for c1ccc2c(c1)ncn2-c1nc2ccccc2n2c1nc1ccccc12 lower than -10% or not? False

Regarding Cc1ccc(NC(=O)C(Cl)Cl)cc1 , kindly confirm whether its growth is beneath -10%. False

Hello, is growth of the following molecule strictly smaller than -10%? CCNCCNc1cc(-c2ccc(F)cc2)c(C#N)c2nc3ccccc3n12 True

Does the reported growth of Cc1nn(-c2ccccc2)c2c1C(c1ccc([N+](=O)[O-])cc1)C(C#N)=C(N)O2 (stereo not given) stay below -10%? False

====

# System: KM12 colon
# test description: NCI-60 one-dose screen, 48 h
# applied conditions: 10 µM unless noted
This is part of a sample that, as a whole, favours compounds with a hit. Of some 83,000 tested, about 20% had one in any assay. Activity calls are given as the source filed them. Rule for the calls: active = growth percent below 10; inactive = the rest.
Respond using exactly one of the listed classes: active, inactive

Example entries begin here.
- molecule: "COc1cc(-c2ccc(-c3ccc(C(=N)N)nc3)s2)cc(OC)c1OC"
  group: "inactive"
- molecule: "CCc1cc(Cc2cc(CC)cc(C(C)(C)C)c2O)c(O)c(C(C)(C)C)c1"
  group: "inactive"
- molecule: "Cc1cnc(Nc2ccc(N3CCN(C)CC3)cc2)nc1Nc1ccc(Cl)c(NS(=O)(=O)C(C)(C)C)c1"
  group: "active"
- molecule: "O=C(C[C@@]1(O)C(=O)Nc2c(Cl)ccc(Cl)c21)c1ccc(C2CC2)cc1"
  group: "inactive"
- molecule: "N#Cc1c(NC(=O)c2ccc(Br)cc2)sc2c1CCCC2"
  group: "inactive"

// outcome(item) with item = Cc1cc(=O)c2cc3nc(-c4cccnc4)oc3c(Br)c2o1 inactive

// outcome(item) with item = OC(c1cccc(OCc2ccccc2)c1)c1nnc(-c2ccccc2)o1 (stereo unspecified) inactive

# outcome recorded in this test, key = CC(C)n1nc(C#Cc2cccc3cc(-c4cccc(C(F)(F)F)c4)ncc23)c2c(N)ncnc21 inactive

What was the test verdict on O=C1N/C(=N/O)S/C1=C/c1cn(-c2ccccc2)nc1-c1ccccc1 ? inactive

Dear colleague, could you share the recorded outcome for COc1ccc(NC(=O)c2cccc(-c3cc(=O)c4c(O)c(OC)c(OC)cc4o3)c2)cc1 when you have a moment? inactive

Which outcome was assigned to O=C(CC12CC3CC(CC(C3)C1)C2)NCCOCCOCCOCCNC(=O)c1cc2c(o1)C(=O)c1ccccc1C2=O in this test? active

====

Reported growth values for the following compounds.
# System: TK-10 renal
# test description: NCI-60 one-dose screen, 48 h (100 = growth as untreated, 0 = no growth, -100 = all killed)
# applied conditions: 10 µM unless noted
Compounds without any hit were thinned out: in the full panel of roughly 83,000, 20% have a hit. The source made the active and inactive calls. The calls were made as follows: active = growth percent below 10; inactive = the rest.

Worked set:
- compound: "C=C(C)[C@@H]1CC[C@]2(CNCCO)CC[C@]3(C)[C@H](CC[C@@H]4[C@@]5(C)CCC(N)[C@@](C)(CO)[C@@H]5CC[C@]43C)[C@@H]12 (stereo partly drawn)"
  endpoint value: "-47.4% (active)"
- compound: "CN(C)c1ccc2cc(-c3ccccc3F)c(N)nc2c1"
  endpoint value: "34.6% (inactive)"

Quick one: growth of Cc1nc(-c2ccccc2)cc2c(O)c(C(=O)N/N=C/c3ccc(N(C)C)cc3)[nH]c(=O)c12 ? 88.8% (inactive)

====

# Test system: SW-620 colon
# test description: NCI-60 one-dose screen, 48 h (100 = growth as untreated, 0 = no growth, -100 = all killed)
# applied conditions: 10 µM unless noted
About 83,000 compounds went through this panel and 20% of them were active in at least one assay; those are over-represented in the sample as a whole.
measurement type: growth (%)
Write the number in % without appending the unit.

A selection of reference data follows.
- mol: "O=c1oc2ccc(Cl)cc2cc1-c1cs/c(=N/N=C\\c2ccc(Cl)cc2)n1/N=C/c1ccc(Cl)cc1"
  endpoint value: 104
- mol: "CC(=O)Nc1ccc(C(=O)/C=C/c2ccccc2)cc1"
  endpoint value: 90.4
- mol: "Cc1cc(N2CCCCC2)nc(N(CCNc2ccnc3cc(Cl)ccc23)Cc2ccccn2)n1"
  endpoint value: 45.7
- mol: "C=C1C(=O)O[C@H]2[C@H]1CC/C(COC(=O)/C=C\\C(=O)NCc1ccc(Cn3c(=O)sn(CCCI)c3=O)cc1)=C\\CC[C@@]1(C)O[C@@H]21"
  endpoint value: -76.3
- mol: "Cl.Fc1c[c-]c(-c2ccccn2)c(F)c1.[Pt].c1ccc([PH+](c2ccccc2)c2ccccc2[PH+](c2ccccc2)c2ccccc2)cc1"
  endpoint value: -81.6

Attention now turns to another entry.
API: value(readout= growth, system= SW-620 colon, query= CCCCNCC(=O)Nc1ccc(C(=O)OCC)cc1 ) 105

====

# System: MCF7 breast
# test description: NCI-60 one-dose screen, 48 h
# applied conditions: 10 µM unless noted
Compounds without any hit were thinned out: in the full panel of roughly 83,000, 20% have a hit. The source made the active and inactive calls. The calls were made as follows: active = growth percent below 10; inactive = the rest.
Allowed answers: YES for active, NO for inactive

Take a look at these entries with their results.
- compound: "CC1(C)N=C(N)N=C(N)N1c1ccc(Cl)c(Cl)c1"
  group: "NO"
- compound: "CN(C)CCCCNc1ccc(NCCCCN(C)C)c2c1C(=O)c1c(O)ccc(O)c1C2=O"
  group: "YES"
- compound: "Cc1cccc(-c2cc(O)c(C(=O)N3CCOCC3)s2)c1"
  group: "NO"
- compound: "CCOC(=O)c1c(C)[nH]c(C(=O)CCC(=O)OC)c1C"
  group: "NO"
- compound: "Cc1ccc(-n2nnc(C3=NCCc4c3[nH]c3ccc(Cl)cc43)c2C)cc1"
  group: "NO"

Dear colleague, could you share the recorded outcome for COc1cc2oc(-c3cccc(C(=O)Nc4ccc(C#N)cc4)c3)cc(=O)c2c(O)c1OC when you have a moment? NO

Hi, do you know how O=C(NC(=S)Nc1ccc(-c2nc3ccccc3[nH]2)cc1)c1ccc2ccccc2c1 came out in this test? NO

Record request — test call for CN1CCC(=C2c3ccccc3C=Cc3ccccc32)CC1 NO

What was the test verdict on O=C(CC12CC3CC(CC(C3)C1)C2)NCCOCCOCCOCCNC(=O)c1cc2c(o1)C(=O)c1ccccc1C2=O ? YES

Which outcome was entered for the compound CN1C[C@@H](c2ccc(Cl)cc2)[C@]2(NC(=S)N(c3ccccc3)C2=O)[C@@]12C(=O)NC1C=CC(Br)=C[C@H]12 (some centres undefined) in this test? NO

====

The following compounds are listed with their measured growth values.
# Tested on: DU-145 prostate
# test description: NCI-60 one-dose screen, 48 h (100 = growth as untreated, 0 = no growth, -100 = all killed)
# applied conditions: 10 µM unless noted
This is part of a sample that, as a whole, favours compounds with a hit. Of some 83,000 tested, about 20% had one in any assay. Calls of active or inactive are those of the source. Rule for the calls: active = growth percent below 10; inactive = the rest.

Study these solved cases before continuing.
- compound: "C[C@@H]1CC[C@@H]2[C@@H]1[C@H](OC(=O)/C=C/c1ccccc1)[C@]1(C3CCCCC3)C[C@@H](NC(=O)CO)[C@@]2(C)O1"
  growth: "107% (inactive)"
- compound: "CN1CCN(c2ccc(Nc3ncc(Cl)c(NC[C@@H]4CCCO4)n3)cc2)CC1"
  growth: "23% (inactive)"
- compound: "O=C1CC(c2ccc3c(c2)OCO3)Nc2cc3c(cc21)OCO3 (stereo not given)"
  growth: "15.3% (inactive)"

Looking for the measured growth of CCCN1CCN(c2ccc3nc(-c4ccc5nc(-c6cc(OC)c(OC)c(OC)c6)[nH]c5c4)[nH]c3c2)CC1 , can you help? 109% (inactive)
